Value source: PubChem BioAssay (NCI)

Listed compounds paired with reported growth
Tested on: SK-MEL-2 melanoma
RUN_DESCRIPTION: NCI-60 one-dose screen, 48 h (100 = growth as untreated, 0 = no growth, -100 = all killed)
ASSAY_CONDITIONS: 10 µM unless noted
The panel holds about 83,000 compounds, 20% with a hit somewhere; the sample as a whole holds those more often.

# COMPOUND, growth, %
records = [
    ("CC1(C)CC2(CC(C)(C)c3cc(O)c(O)cc32)c2cc(O)c(O)cc21", 110),
    ("CC12CCC(=O)C=C1C(O)CC1C2CCC2(C)C(O)CCC12 (stereo not given)", 105),
    ("CC1(CF)NC(=O)NC1=O (stereo not given)", 121),
    ("O=C(O)C1[O][Sb][O]C1C(=O)O (stereo not given)", 96.5),
    ("CC1(C)N=C(N)N=C(N)N1c1ccc(CCCCc2ccc(Cl)cc2S(=O)(=O)F)c(Cl)c1", 38.3),
]
